Sourced from the supplement of paper PMC10567573

B1: TOR1AIP2 (parent)
chain: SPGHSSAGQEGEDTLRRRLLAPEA

variants of: B1; assay: protein stability index of a GFP-peptide fusion (GPS, HEK-293T) (PSI 1-6); higher = more stable; settings: c terminus: a fixed tail appended;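 note: lentivirally expressed fusions sorted by FACS into six bins by GFP to DsRed ratio, PSI derived from sequencing read proportions per bin multiplied by bin number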
MEASUREMENT_LABEL: protein stability index
Number only, no unit.

Please report the measured protein stability index for SPGHSSAGQEGEDTLRRRLLAPIA [E23I]
4.1

Please report the measured protein stability index for SPGHSIAGQEGEDTLRRRLLAPEA [S6I]
3.42

Please report the measured protein stability index for SPGHSSAGQEGEDTLRRRLLAPEC [A24C]
4.27

Please report the measured protein stability index for SPGHSSAGQEGEDTLRRRLLAPEQ [A24Q]
4.82

Please report the measured protein stability index for SPGHSSAGQEGEDTLRRRLHAPEA [L20H]
5.29

Please report the measured protein stability index for SPGHSSAGQEGEDTLRRRLLAPKA [E23K]
4.95

Please report the measured protein stability index for GPGHSSAGQEGEDTLRRRLLAPEA [S1G]
3.81

Please report the measured protein stability index for SPGHSSAGQEGEDTLRFRLLAPEA [R17F]
2.09

Please report the measured protein stability index for SPGHSSAGQEGMDTLRRRLLAPEA [E12M]
3.53

Please report the measured protein stability index for SPGHSSAGREGEDTLRRRLLAPEA [Q9R]
3.5

Please report the measured protein stability index for SPGHSSAGQEGQDTLRRRLLAPEA [E12Q]
3.38

Please report the measured protein stability index for SPGHSSAGQEGEDTLRRRLSAPEA [L20S]
4.95

Please report the measured protein stability index for SPGHSSAGNEGEDTLRRRLLAPEA [Q9N]
4.05

Please report the measured protein stability index for SPCHSSAGQEGEDTLRRRLLAPEA [G3C]
3.32

Please report the measured protein stability index for SPGHSSAGQEGEDTLRRRLLAPYA [E23Y]
3.59

Please report the measured protein stability index for SPGHSSAGQEGEMTLRRRLLAPEA [D13M]
3.06

Please report the measured protein stability index for SPGHSSAGQVGEDTLRRRLLAPEA [E10V]
4.04

Please report the measured protein stability index for SPGHSFAGQEGEDTLRRRLLAPEA [S6F]
2.94

Please report the measured protein stability index for SPGSSSAGQEGEDTLRRRLLAPEA [H4S]
4.39

Please report the measured protein stability index for SPGHSSAGQEGEDTLRRELLAPEA [R18E]
5.45

Please report the measured protein stability index for SPTHSSAGQEGEDTLRRRLLAPEA [G3T]
3.59

Please report the measured protein stability index for SPGHSSAEQEGEDTLRRRLLAPEA [G8E]
4.5

Please report the measured protein stability index for SPGHSSAGQEFEDTLRRRLLAPEA [G11F]
3.49

Please report the measured protein stability index for SPGHSSAGQEGEETLRRRLLAPEA [D13E]
4.73

Please report the measured protein stability index for SPGESSAGQEGEDTLRRRLLAPEA [H4E]
4.15

Please report the measured protein stability index for SPGHSSAGQTGEDTLRRRLLAPEA [E10T]
3.81

Please report the measured protein stability index for SPGHSSAGQEGEDTLRRRLLAPRA [E23R]
4.77

Please report the measured protein stability index for SSGHSSAGQEGEDTLRRRLLAPEA [P2S]
3.93

Please report the measured protein stability index for SPGHSSAGQEGEDTLRYRLLAPEA [R17Y]
2.48

Please report the measured protein stability index for SPGHSSAGQEGEDTLRRALLAPEA [R18A]
4.8

Please report the measured protein stability index for SPGHSSDGQEGEDTLRRRLLAPEA [A7D]
4.56

Please report the measured protein stability index for CPGHSSAGQEGEDTLRRRLLAPEA [S1C]
3.46

Please report the measured protein stability index for SPGHSSAGQEGEDTARRRLLAPEA [L15A]
5.47

Please report the measured protein stability index for SPGHSSAGQEGEDTLRRRRLAPEA [L19R]
4.89

Please report the measured protein stability index for SPGHSSAGQEGLDTLRRRLLAPEA [E12L]
3.33

Please report the measured protein stability index for SPGMSSAGQEGEDTLRRRLLAPEA [H4M]
3.38

Please report the measured protein stability index for SPGHSSAGQEGEDDLRRRLLAPEA [T14D]
4.18

Please report the measured protein stability index for SPGHSSVGQEGEDTLRRRLLAPEA [A7V]
4.25

Please report the measured protein stability index for SPGHSSAGQEGEDCLRRRLLAPEA [T14C]
2.67

Please report the measured protein stability index for SPGHSSAGQEWEDTLRRRLLAPEA [G11W]
3.6

Please report the measured protein stability index for SPGHSSAGQEGEDTLRRRLRAPEA [L20R]
5.26

Please report the measured protein stability index for SPGHSSAGQEGEDTCRRRLLAPEA [L15C]
3.98

Please report the measured protein stability index for SPGHSSAGQEGEDPLRRRLLAPEA [T14P]
4.33

Please report the measured protein stability index for SPGHSSAGQEGEDTLRVRLLAPEA [R17V]
3.9

Please report the measured protein stability index for SPGHSAAGQEGEDTLRRRLLAPEA [S6A]
4.36

Please report the measured protein stability index for SPGHSSAGQEGEDTLRRRLLAPEY [A24Y]
3.42

Please report the measured protein stability index for SPGHSSAGQEGEDTLRSRLLAPEA [R17S]
4.71

Please report the measured protein stability index for SPGHSSAGQEGEDQLRRRLLAPEA [T14Q]
4.11

Please report the measured protein stability index for SPGHSSAGQESEDTLRRRLLAPEA [G11S]
4.48

Please report the measured protein stability index for SPGHSSAGQEGEDTLRRVLLAPEA [R18V]
4.14

Please report the measured protein stability index for SPGHSSAGQEGEDTLRRRLGAPEA [L20G]
5.54

Please report the measured protein stability index for SDGHSSAGQEGEDTLRRRLLAPEA [P2D]
4.86

Please report the measured protein stability index for SPGHSSRGQEGEDTLRRRLLAPEA [A7R]
3.82

Please report the measured protein stability index for SPGHSSANQEGEDTLRRRLLAPEA [G8N]
4.05

Please report the measured protein stability index for SPGHSSAGQEGEDHLRRRLLAPEA [T14H]
4.33

Please report the measured protein stability index for SPGHSSAGQEGEDTLRRRLTAPEA [L20T]
5.33

Please report the measured protein stability index for SPGHSSAGQEGEDTLRRRLLAPQA [E23Q]
4.59

Please report the measured protein stability index for SPGHSSASQEGEDTLRRRLLAPEA [G8S]
4.42

Please report the measured protein stability index for SPGHSSAGQEGEDTLRRRLLQPEA [A21Q]
4.94

Please report the measured protein stability index for SPGHSSAGQEGEDTLRRWLLAPEA [R18W]
2.51

Please report the measured protein stability index for SPFHSSAGQEGEDTLRRRLLAPEA [G3F]
3.85

Please report the measured protein stability index for SPGHSRAGQEGEDTLRRRLLAPEA [S6R]
4.46

Please report the measured protein stability index for SPGHSSAGQEGEDTLARRLLAPEA [R16A]
5.37

Please report the measured protein stability index for SPGHSSAGQEGEDTLRRRLLHPEA [A21H]
5.26

Please report the measured protein stability index for SPGHSSAGQEGEDTIRRRLLAPEA [L15I]
4.53

Please report the measured protein stability index for SPGHSSAGQEGEDRLRRRLLAPEA [T14R]
4.65

Please report the measured protein stability index for SPGHSSAGQEGADTLRRRLLAPEA [E12A]
3.48

Please report the measured protein stability index for SPGHSSAGQETEDTLRRRLLAPEA [G11T]
4.62

Please report the measured protein stability index for SPGHSSAGQEGEDTLRRRLCAPEA [L20C]
5.49

Please report the measured protein stability index for SPGHSSAGQEGEDTMRRRLLAPEA [L15M]
4.79

Please report the measured protein stability index for SPGHHSAGQEGEDTLRRRLLAPEA [S5H]
4.35

Please report the measured protein stability index for SPGHSSAGQEGEDTLRRRLLAPEP [A24P]
4.94

Please report the measured protein stability index for SPGHSSAGQEGEDTLRRRLLAPEW [A24W]
2.94

Please report the measured protein stability index for SPGHSSAGQEGEDTLRRRDLAPEA [L19D]
5.35

Please report the measured protein stability index for SIGHSSAGQEGEDTLRRRLLAPEA [P2I]
2.5

Please report the measured protein stability index for SPGHSSAGQEGEDTLRRDLLAPEA [R18D]
4.89

Please report the measured protein stability index for SPGHSSACQEGEDTLRRRLLAPEA [G8C]
4.46

Please report the measured protein stability index for SPGHSSWGQEGEDTLRRRLLAPEA [A7W]
3.89

Please report the measured protein stability index for SPGHSLAGQEGEDTLRRRLLAPEA [S6L]
4.18

Please report the measured protein stability index for SPGHSSAGQEGEDTLERRLLAPEA [R16E]
5.46

Please report the measured protein stability index for SPGHSSAGQEMEDTLRRRLLAPEA [G11M]
4.15

Please report the measured protein stability index for SPGHSWAGQEGEDTLRRRLLAPEA [S6W]
3.97

Please report the measured protein stability index for SPGHSSAGQEGEDTLRRRLLMPEA [A21M]
4.19

Please report the measured protein stability index for SPGHSSAGQEGEDTLRRRLNAPEA [L20N]
5.25

Please report the measured protein stability index for SPGHSSAGQEGECTLRRRLLAPEA [D13C]
4.05

Please report the measured protein stability index for SPGHSSAGQEGEDTLRRRELAPEA [L19E]
5.46

Please report the measured protein stability index for SPGHSSAGQEGEDTLRRRLLTPEA [A21T]
5.39

Please report the measured protein stability index for SPGHSSAGQEGEYTLRRRLLAPEA [D13Y]
2.8

Please report the measured protein stability index for SFGHSSAGQEGEDTLRRRLLAPEA [P2F]
2.53

Please report the measured protein stability index for SPGHSSAGQEGEDTLCRRLLAPEA [R16C]
5.14

Please report the measured protein stability index for SPGHSSAGQEGEDTLRRRLWAPEA [L20W]
4.73
